- Test system: K. pneumoniae (ATCC 43816)
- ASSAY COMMENT: Antimicrobial susceptibility assay (MIC/MBC)
- Format: cell-based, Klebsiella pneumoniae
- ASSAY CONTEXT: MHB, 37 °C, 20 h
Residues, ends and D or L forms follow the SMILES beside them.
compounds and their reported MIC
Answer format: numeric, µM implied, no suffix.

COMPOUND: CC[C@H](C)[C@H](NC(=O)[C@H](CCCNC(=N)N)NC(=O)[C@@H]1CCCN1C(=O)[C@H](CC(C)C)NC(=O)[C@@H](N)Cc1ccccc1)C(=O)N[C@@H](CC(C)C)C(=O)N[C@@H](CCCNC(=N)N)C(=O)N[C@@H](CCCCN)C(=O)N[C@H](C(=O)N[C@H](C(=O)N[C@@H](CCCNC(=N)N)C(=O)N[C@@H](C)C(=O)N[C@@H](CC(C)C)C(N)=O)C(C)C)[C@@H](C)CC [Crabrolin-TR, FLPRILRKIVRAL-NH2] (H-FLPRILRKIVRAL-NH2)
MIC, µM: 8
--
COMPOUND: CC[C@H](C)[C@H](NC(=O)[C@H](CCCNC(=N)N)NC(=O)[C@@H]1CCCN1C(=O)[C@H](CC(C)C)NC(=O)[C@@H](N)Cc1ccccc1)C(=O)N[C@@H](CC(C)C)C(=O)N[C@@H](CCCNC(=N)N)C(=O)N[C@@H](CCCCN)C(=O)N[C@H](C(=O)N[C@H](C(=O)N[C@H](C(=O)N[C@@H](C)C(=O)N[C@@H](CC(C)C)C(N)=O)[C@@H](C)O)C(C)C)[C@@H](C)CC [Crabrolin-4R, FLPRILRKIVTAL-NH2] (H-FLPRILRKIVTAL-NH2)
MIC, µM: 8
--
COMPOUND: CC[C@H](C)[C@H](NC(=O)[C@H](CC(C)C)NC(=O)[C@@H]1CCCN1C(=O)[C@H](CC(C)C)NC(=O)[C@@H](N)Cc1ccccc1)C(=O)N[C@@H](CC(C)C)C(=O)N[C@@H](CCCNC(=N)N)C(=O)N[C@@H](CCCCN)C(=O)N[C@H](C(=O)N[C@H](C(=O)N[C@H](C(=O)N[C@@H](C)C(=O)N[C@@H](CC(C)C)C(N)=O)[C@@H](C)O)C(C)C)[C@@H](C)CC [Crabrolin, FLPLILRKIVTAL-NH2] (H-FLPLILRKIVTAL-NH2)
MIC, µM: 64

Attention now turns to another entry.
Could you tell me which MIC is on file for CC[C@H](C)[C@H](NC(=O)[C@H](CCCNC(=N)N)NC(=O)[C@H](CCCNC(=N)N)NC(=O)[C@H](CC(C)C)NC(=O)[C@@H](N)CCCNC(=N)N)C(=O)N[C@@H](CC(C)C)C(=O)N[C@@H](CCCNC(=N)N)C(=O)N[C@@H](CCCCN)C(=O)N[C@H](C(=O)N[C@H](C(=O)N[C@@H](CCCNC(=N)N)C(=O)N[C@@H](CCCNC(=N)N)C(=O)N[C@@H](CC(C)C)C(N)=O)C(C)C)[C@@H](C)CC [Crabrolin-PR, RLRRILRKIVRRL-NH2] (H-RLRRILRKIVRRL-NH2) ?
8

====

- Test system: P. aeruginosa (ATCC 9027) biofilm
- Assay type: cell-based, Pseudomonas aeruginosa
- ASSAY CONTEXT: eradication rate greater than 99.9%
Residues, ends and D or L forms follow the SMILES beside them.
VALUE TYPE: MBEC

MOLECULE: CC[C@H](C)[C@H](NC(=O)[C@H](CCCCN)NC(=O)[C@@H]1CCCN1C(=O)[C@H](CC(C)C)NC(=O)[C@@H](N)Cc1ccccc1)C(=O)N[C@@H](CC(C)C)C(=O)N[C@@H](CCCNC(=N)N)C(=O)N[C@@H](CCCCN)C(=O)N[C@H](C(=O)N[C@H](C(=O)N[C@H](C(=O)N[C@@H](C)C(=O)N[C@@H](CC(C)C)C(N)=O)[C@@H](C)O)C(C)C)[C@@H](C)CC [Crabrolin-4K, FLPKILRKIVTAL-NH2] (H-FLPKILRKIVTAL-NH2)
SYSTEM TESTED: P. aeruginosa (ATCC 9027) biofilm
TEST VALUE: 512/512 µM

MOLECULE: CC[C@H](C)[C@H](NC(=O)[C@H](CC(C)C)NC(=O)[C@@H]1CCCN1C(=O)[C@H](CC(C)C)NC(=O)[C@@H](N)Cc1ccccc1)C(=O)N[C@@H](CC(C)C)C(=O)N[C@@H](CCCNC(=N)N)C(=O)N[C@@H](CCCCN)C(=O)N[C@H](C(=O)N[C@H](C(=O)N[C@H](C(=O)N[C@@H](C)C(=O)N[C@@H](CC(C)C)C(N)=O)[C@@H](C)O)C(C)C)[C@@H](C)CC [Crabrolin, FLPLILRKIVTAL-NH2] (H-FLPLILRKIVTAL-NH2)
SYSTEM TESTED: P. aeruginosa (ATCC 9027) biofilm
TEST VALUE: 512 µM

MOLECULE: CC[C@H](C)[C@H](NC(=O)[C@H](CCCNC(=N)N)NC(=O)[C@@H]1CCCN1C(=O)[C@H](CC(C)C)NC(=O)[C@@H](N)CCCNC(=N)N)C(=O)N[C@@H](CC(C)C)C(=O)N[C@@H](CCCNC(=N)N)C(=O)N[C@@H](CCCCN)C(=O)N[C@H](C(=O)N[C@H](C(=O)N[C@@H](CCCNC(=N)N)C(=O)N[C@@H](CCCNC(=N)N)C(=O)N[C@@H](CC(C)C)C(N)=O)C(C)C)[C@@H](C)CC [Crabrolin-AR, RLPRILRKIVRRL-NH2] (H-RLPRILRKIVRRL-NH2)
SYSTEM TESTED: P. aeruginosa (ATCC 9027) biofilm
TEST VALUE: > 512 µM

Form field: reported MBEC of CC[C@H](C)[C@H](NC(=O)[C@H](CCCNC(=N)N)NC(=O)[C@@H]1CCCN1C(=O)[C@H](CC(C)C)NC(=O)[C@@H](N)Cc1ccccc1)C(=O)N[C@@H](CC(C)C)C(=O)N[C@@H](CCCNC(=N)N)C(=O)N[C@@H](CCCCN)C(=O)N[C@H](C(=O)N[C@H](C(=O)N[C@@H](CCCNC(=N)N)C(=O)N[C@@H](C)C(=O)N[C@@H](CC(C)C)C(N)=O)C(C)C)[C@@H](C)CC [Crabrolin-TR, FLPRILRKIVRAL-NH2] (H-FLPRILRKIVRAL-NH2)
256 µM

Can you handle CC[C@H](C)[C@H](NC(=O)[C@H](CCCNC(=N)N)NC(=O)[C@@H]1CCCN1C(=O)[C@H](CC(C)C)NC(=O)[C@@H](N)CCCNC(=N)N)C(=O)N[C@@H](CC(C)C)C(=O)N[C@@H](CCCNC(=N)N)C(=O)N[C@@H](CCCCN)C(=O)N[C@H](C(=O)N[C@H](C(=O)N[C@@H](CCCNC(=N)N)C(=O)N[C@@H](C)C(=O)N[C@@H](CC(C)C)C(N)=O)C(C)C)[C@@H](C)CC [Crabrolin-FR, RLPRILRKIVRAL-NH2] (H-RLPRILRKIVRAL-NH2) next?
> 512 µM

Here is the next molecule: CC[C@H](C)[C@H](NC(=O)[C@H](CC(C)C)NC(=O)[C@@H]1CCCN1C(=O)[C@H](CC(C)C)NC(=O)[C@@H](N)Cc1ccccc1)C(=O)N[C@@H](CC(C)C)C(=O)N[C@@H](CCCNC(=N)N)C(=O)N[C@@H](CCCCN)C(=O)N[C@@H](CCCNC(=N)N)C(=O)N[C@H](C(=O)N[C@H](C(=O)N[C@@H](C)C(=O)N[C@@H](CC(C)C)C(N)=O)[C@@H](C)O)C(C)C [Crabrolin-9R, FLPLILRKRVTAL-NH2] (H-FLPLILRKRVTAL-NH2)
>512/>512 µM

====

Reported MBC values for a set of compounds
- Test system: P. aeruginosa (ATCC 9027)
- ASSAY COMMENT: Antimicrobial susceptibility assay (MIC/MBC)
- Assay type: cell-based, Pseudomonas aeruginosa
Residues, ends and D or L forms follow the SMILES beside them.
Give the value, in units of µM, as a plain number.

Provide the documented MBC with P. aeruginosa (ATCC 9027) as the system for CC[C@H](C)[C@H](NC(=O)[C@H](CCCNC(=N)N)NC(=O)[C@H](CCCNC(=N)N)NC(=O)[C@H](CC(C)C)NC(=O)[C@@H](N)CCCNC(=N)N)C(=O)N[C@@H](CC(C)C)C(=O)N[C@@H](CCCNC(=N)N)C(=O)N[C@@H](CCCCN)C(=O)N[C@H](C(=O)N[C@H](C(=O)N[C@@H](CCCNC(=N)N)C(=O)N[C@@H](CCCNC(=N)N)C(=O)N[C@@H](CC(C)C)C(N)=O)C(C)C)[C@@H](C)CC [Crabrolin-PR, RLRRILRKIVRRL-NH2] (H-RLRRILRKIVRRL-NH2)
16

Follow-up item: CC[C@H](C)[C@H](NC(=O)[C@H](CCCCN)NC(=O)[C@@H]1CCCN1C(=O)[C@H](CC(C)C)NC(=O)[C@@H](N)Cc1ccccc1)C(=O)N[C@@H](CC(C)C)C(=O)N[C@@H](CCCNC(=N)N)C(=O)N[C@@H](CCCCN)C(=O)N[C@H](C(=O)N[C@H](C(=O)N[C@H](C(=O)N[C@@H](C)C(=O)N[C@@H](CC(C)C)C(N)=O)[C@@H](C)O)C(C)C)[C@@H](C)CC [Crabrolin-4K, FLPKILRKIVTAL-NH2] (H-FLPKILRKIVTAL-NH2)
32
